Every entry's value here was drawn from patent US7858786B2.

Target: UniProt:Q9Y5Y9
Test: Activity against NaV 1.8 channel (NaV inhibition assay)
Type: cell-based
pIC50: −log10 of the molar value.

# Smiles representation, Target entity, pIC50
measured = [
    ("CC(C)COC(=O)NC1CCN(c2nccc(-c3ccccc3O)n2)CC1", "UniProt:Q9Y5Y9", "< 4.82"),
    ("COCCOC(=O)N[C@@H]1CCN(c2cncc(-c3ccccc3O)n2)C1", "UniProt:Q9Y5Y9", "< 4.82"),
    ("CC(C)COC(=O)N1CCN(c2cc(-c3ccccc3C(F)F)ncn2)CC1", "UniProt:Q9Y5Y9", "< 4.82"),
    ("CC(C)C[C@@H](O)C(=O)N1CCN(c2nccc(-c3ccccc3C(F)F)n2)CC1", "UniProt:Q9Y5Y9", "4.82 to 5.00"),
    ("CC(C)COC(=O)N[C@H]1CCN(c2cncc(-c3ccccc3C(F)F)n2)C1", "UniProt:Q9Y5Y9", "> 5.00"),
    ("CC(C)(C)OC(=O)NC1CCN(c2cncc(-c3ccccc3O)n2)CC1", "UniProt:Q9Y5Y9", "> 5.00"),
    ("CC(C)C[C@@H](O)C(=O)N1CCN(c2nccc(-c3ccccc3O)n2)CC1", "UniProt:Q9Y5Y9", "> 5.00"),
    ("COCCOC(=O)NC1CCN(c2cncc(-c3ccccc3O)n2)CC1", "UniProt:Q9Y5Y9", "< 4.82"),
    ("COCCOC(=O)N[C@H]1CCN(c2cncc(-c3ccccc3C(F)F)n2)C1", "UniProt:Q9Y5Y9", "< 4.82"),
]

* * *

Consider the following molecules and their measured IC50 readings.
Target: UniProtKB Q9Y5Y9
Assay: Activity against NaV 1.8 channel (NaV inhibition assay)
Format: cell-based
Experimental: Compounds of the invention are useful as antagonists of voltage-gated sodium ion channels. Antagonist properties of test compounds were assessed as follows. Cells expressing the NaV of interest were placed into microtiter plates. […] The cells were stimulated with either a chemical or electrical means to evoke a NaV dependent membrane potential change from unblocked channels, which was detected and measured with trans-membrane potential-sensitive dyes. […]
Quantity name: IC50

# Molecule, Quantity name, Observed result
records = [
    ("CC(C)COC(=O)NC1CCN(c2cncc(-c3ccccc3O)n2)CC1 [Compound 18]", "IC50", "< 10 µM"),
    ("CC(C)C[C@@H](O)C(=O)N1CCN(c2cc(-c3ccccc3C(F)F)ncn2)CC1 [Compound 49]", "IC50", "> 15 µM"),
    ("CC(C)COC(=O)N1CCN(c2nccc(-c3ccccc3O)n2)CC1 [Compound 25]", "IC50", "< 10 µM"),
    ("CC(C)OC(=O)N[C@@H]1CCN(c2cncc(-c3ccccc3F)n2)C1 [Compound 22]", "IC50", "> 15 µM"),
    ("CC(C)C[C@@H](O)C(=O)N1CCN(c2ccnc(-c3ccccc3C(F)F)n2)CC1 [Compound 21]", "IC50", "> 15 µM"),
    ("CC(C)C[C@@H](O)C(=O)N1CCN(c2ccnc(-c3ccccc3F)n2)CC1 [Compound 42]", "IC50", "> 15 µM"),
    ("CC(C)COC(=O)NC1CCN(c2nccc(-c3ccccc3C(F)F)n2)CC1 [Compound 31]", "IC50", "< 10 µM"),
    ("CC(C)C(=O)N[C@@H]1CCN(c2cncc(-c3ccccc3O)n2)C1 [Compound 14]", "IC50", "> 15 µM"),
    ("O=C(NC1CCN(c2ccnc(-c3ccccc3F)n2)CC1)[C@H]1CCCO1 [Compound 2]", "IC50", "> 15 µM"),
    ("CC(C)COC(=O)N1CCN(c2ccnc(-c3ccccc3O)n2)CC1 [Compound 34]", "IC50", "> 15 µM"),
    ("COCCOC(=O)NC1CCN(c2cncc(-c3ccccc3C(F)F)n2)CC1 [Compound 19]", "IC50", "< 10 µM"),
    ("CC(C)(C)OC(=O)N[C@@H]1CCN(c2cncc(-c3ccccc3O)n2)C1 [Compound 40]", "IC50", "> 15 µM"),
    ("CC(C)C[C@@H](O)C(=O)N1CCN(c2cncc(-c3ccccc3O)n2)CC1 [Compound 38]", "IC50", "> 15 µM"),
    ("CC(C)COC(=O)NC1CCN(c2cncc(-c3ccccc3F)n2)CC1 [Compound 45]", "IC50", "< 10 µM"),
    ("COCCOC(=O)NC1CCN(c2cncc(-c3ccccc3F)n2)CC1 [Compound 9]", "IC50", "< 10 µM"),
    ("CC(C)(C)OC(=O)NC1CCN(c2cncc(-c3ccccc3F)n2)CC1 [Compound 3]", "IC50", "< 10 µM"),
    ("COCCOC(=O)N[C@@H]1CCN(c2cncc(-c3ccccc3F)n2)C1 [Compound 27]", "IC50", "> 15 µM"),
    ("CC(C)COC(=O)N1CCN(c2cc(-c3ccccc3F)ncn2)CC1 [Compound 23]", "IC50", "> 15 µM"),
    ("CC(C)COC(=O)N1CCN(c2ccnc(-c3ccccc3C(F)F)n2)CC1 [Compound 32]", "IC50", "> 15 µM"),
    ("CC(C)C(=O)N[C@@H]1CCN(c2cncc(-c3ccccc3C(F)F)n2)C1 [Compound 28]", "IC50", "> 15 µM"),
    ("CC(C)COC(=O)N1CCN(c2cc(-c3ccccc3O)ncn2)CC1 [Compound 20]", "IC50", "10 to 15 µM"),
    ("CC(C)OC(=O)N[C@@H]1CCN(c2cncc(-c3ccccc3O)n2)C1 [Compound 41]", "IC50", "> 15 µM"),
    ("CC(C)COC(=O)N1CCN(c2cncc(-c3ccccc3O)n2)CC1 [Compound 33]", "IC50", "< 10 µM"),
    ("CC(C)COC(=O)N1CCN(c2nccc(-c3ccccc3C(F)F)n2)CC1 [Compound 24]", "IC50", "10 to 15 µM"),
    ("CC(C)COC(=O)NC1CCN(c2ccnc(-c3ccccc3C(F)F)n2)CC1 [Compound 13]", "IC50", "< 10 µM"),
    ("O=C(NC1CCN(c2ccnc(-c3ccccc3O)n2)CC1)[C@H]1CCCO1 [Compound 29]", "IC50", "> 15 µM"),
    ("CC(C)COC(=O)N1CCN(c2ccnc(-c3ccccc3F)n2)CC1 [Compound 10]", "IC50", "> 15 µM"),
    ("CC(C)C[C@@H](O)C(=O)N1CCN(c2ccnc(-c3ccccc3O)n2)CC1 [Compound 12]", "IC50", "10 to 15 µM"),
    ("CC(C)COC(=O)N1CCN(c2cncc(-c3ccccc3C(F)F)n2)CC1 [Compound 15]", "IC50", "10 to 15 µM"),
    ("CC(C)C[C@@H](O)C(=O)N1CCN(c2cc(-c3ccccc3F)ncn2)CC1 [Compound 44]", "IC50", "> 15 µM"),
    ("CC(C)(C)OC(=O)N[C@@H]1CCN(c2cncc(-c3ccccc3C(F)F)n2)C1 [Compound 43]", "IC50", "10 to 15 µM"),
    ("CC(C)(C)OC(=O)N[C@@H]1CCN(c2cncc(-c3ccccc3F)n2)C1 [Compound 8]", "IC50", "10 to 15 µM"),
]
